Where do the numbers come from? From patent US20120190635A1.

- Tested on: Escherichia. coli TolC
- experiment notes: antibacterial MIC, microtiter dilution
- stated conditions: Escherichia coli, read-out: Minimal inhibitory concentration, E. coli W3110 TolC disruption mutant; Mueller Hinten
parameter measured: MIC

Some solved entries appear below for comparison.
CC1CC(N(C)C)C(O)C(OC2CCCC3CCCCC32)O1 (centres unmarked) = > 400 µM
C[C@@H]1C[C@H](N(C)C)[C@@H](O)[C@H](OC2CCCCCCC(O)CCCCC2)O1 (single isomer, unassigned) = > 400 µM
CC1CC(N(C)C)C(O)C(Oc2ccc3ccc4cccc5ccc2c3c45)O1 (centres unmarked) = 25 µM
OC1CCCCCCCCCCCC1 [Cyclotridecanol, reference compound] = > 400 µM
CCCCCCC#CCCOC1OC(C)CC(N(C)C)C1O (centres unmarked) = > 400 µM

In: Could you please provide reported MIC for CC[C@H]1OC(=O)[C@H](C)[C@@H](O[C@H]2C[C@@](C)(OC)[C@@H](O)[C@H](C)O2)[C@H](C)[C@@H](O[C@@H]2O[C@H](C)C[C@H](N(C)C)[C@H]2O)[C@](C)(O)C[C@@H](C)C(=O)[C@H](C)[C@@H](O)[C@]1(C)O [Erythromycin, reference compound] ? Thanks!
Out: < 0.8 µM

In: Please give the documented MIC of OC1CCCCCCCCCCCCCC1 [Cyclopentadecanol, reference compound]
Out: > 400 µM

In: Give MIC for the following compound: OC1CCCCCCCCCCC1 [Cyclododecanol, reference compound]
Out: > 400 µM

====

Number of products for assorted molecules
- measurement target: PikCD50N-RhFRED (Streptomyces venezuelae, UniProt O87605, D50N)
- Sequence (O87605 other isoform, or with tags, fused parts or gaps D50N): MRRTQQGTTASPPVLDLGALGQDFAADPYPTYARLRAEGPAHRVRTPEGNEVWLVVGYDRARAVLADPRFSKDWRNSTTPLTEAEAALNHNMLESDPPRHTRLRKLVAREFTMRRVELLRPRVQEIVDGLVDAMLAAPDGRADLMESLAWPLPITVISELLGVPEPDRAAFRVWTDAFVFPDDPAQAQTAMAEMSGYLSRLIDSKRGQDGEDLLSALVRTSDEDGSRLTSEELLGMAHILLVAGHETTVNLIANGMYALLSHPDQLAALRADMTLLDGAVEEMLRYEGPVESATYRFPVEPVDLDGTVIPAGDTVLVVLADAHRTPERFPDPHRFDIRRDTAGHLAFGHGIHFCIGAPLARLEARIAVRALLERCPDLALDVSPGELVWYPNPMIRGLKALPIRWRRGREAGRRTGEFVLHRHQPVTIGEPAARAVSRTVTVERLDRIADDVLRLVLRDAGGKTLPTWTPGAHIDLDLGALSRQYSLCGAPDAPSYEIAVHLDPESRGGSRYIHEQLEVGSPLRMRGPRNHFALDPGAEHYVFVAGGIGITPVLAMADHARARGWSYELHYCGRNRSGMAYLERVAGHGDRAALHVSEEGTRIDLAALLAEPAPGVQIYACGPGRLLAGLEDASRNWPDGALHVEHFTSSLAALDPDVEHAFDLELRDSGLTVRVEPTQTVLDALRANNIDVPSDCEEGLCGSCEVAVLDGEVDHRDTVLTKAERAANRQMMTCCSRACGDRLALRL
- Format: biochemical
- stated conditions: PikCD50N-RhFRED; Table 1
I'd appreciate a reply containing only the number, no unit.

CC1CC(N(C)C)C(O)C(OC2CCCCC2)O1 (centres unmarked) = 0
CC1CC(N(C)C)C(O)C(OC2CCCCCCCCCCCCCC2)O1 (centres unmarked) = 9
CC1CC(N(C)C)C(O)C(Oc2ccc3ccc4cccc5ccc2c3c45)O1 (centres unmarked) = 1

In: Look up and state reported Number of products for CC1CC(N(C)C)C(O)C(OC2CCCCCCCCCCCCC2)O1 (centres unmarked)
Out: 6

In: Give the value of Number of products reported for the following: CCCCCCC#CCCOC1OC(C)CC(N(C)C)C1O (centres unmarked)
Out: 5

====

- System: Kocuria rhizophila ATCC9341
- experiment notes: antibacterial MIC, microtiter dilution
- stated conditions: Kocuria rhizophila ATCC9341; Nutrient broth
parameter measured: Minimal inhibitory concentration

// worked examples, Minimal inhibitory concentration included
CC[C@H]1OC(=O)[C@H](C)C(=O)[C@H](C)[C@@H](O[C@@H]2O[C@H](C)C[C@H](N(C)C)[C@H]2O)[C@@H](C)C[C@@H](C)C(=O)/C=C/[C@H]1C [Compound 4, narbomycin, reference compound] = <3.1 µM
C[C@@H]1C[C@H](N(C)C)[C@@H](O)[C@H](OC2CCCCCCC(O)CCCCC2)O1 (single isomer, unassigned) = >400 µM
C[C@@H]1C[C@H](N(C)C)[C@@H](O)[C@H](OC2CCCCCCCC(O)CCCC2)O1 (stereo partly shown) = >400 µM

In: Send back Kocuria rhizophila ATCC9341 Minimal inhibitory concentration of CC[C@H]1OC(=O)[C@H](C)C(=O)[C@H](C)[C@@H](O[C@@H]2O[C@H](C)C[C@H](N(C)C)[C@H]2O)[C@@H](C)C[C@@H](C)C(=O)/C=C/[C@]1(C)O [Compound 5, pikromycin, reference compound] only.
Out: 6.2 µM

====

- measurement target: PikCD50N-RhFRED (Streptomyces venezuelae, UniProt O87605, D50N)
- experiment notes: substrate binding assay, PikCD50N-RhFRED
parameter measured: pKd
Scale for pKd: -log10 of concentration given in mol/L; no unit attached.

CC1CC(N(C)C)C(O)C(OC2CCCCCCCCCCCCCC2)O1 (centres unmarked) = 3.61
CC1CC(N(C)C)C(O)C(OC2CCCCCCCCCCCCC2)O1 (centres unmarked) = 3.54
CC1CC(N(C)C)C(O)C(OC2CCCCCCCCCCCC2)O1 (centres unmarked) = 3.66

In: # assay system PikCD50N-RhFRED (Streptomyces venezuelae, UniProt O87605, D50N): give pKd of CCCCCCC#CCCOC1OC(C)CC(N(C)C)C1O (centres unmarked)
Out: 2.54

====

- System: S. aureus NorA
- experiment notes: antibacterial MIC, microtiter dilution
- stated conditions: S. aureus 8325 NorA disruption mutant; Mueller Hinten
parameter measured: Minimal inhibitory concentration (µM)
Write the answer as a number in µM, unit excluded.

CC[C@H]1OC(=O)[C@H](C)C(=O)[C@H](C)[C@@H](O[C@@H]2O[C@H](C)C[C@H](N(C)C)[C@H]2O)[C@@H](C)C[C@@H](C)C(=O)/C=C/[C@]1(C)O [Compound 5, pikromycin, reference compound] = 12.5

Then there is this compound:
In: Tell me measured Minimal inhibitory concentration for CC[C@H]1OC(=O)[C@H](C)C(=O)[C@H](C)[C@@H](O[C@@H]2O[C@H](C)C[C@H](N(C)C)[C@H]2O)[C@@H](C)C[C@@H](C)C(=O)/C=C/[C@H]1C [Compound 4, narbomycin, reference compound] please.
Out: 3.1

====

- System: Staphylococcus aureus ATCC6538P
- experiment notes: antibacterial MIC, microtiter dilution
- stated conditions: Staphylococcus aureus ATCC6538P; LB
Quick reference: Minimal inhibitory concentration of the listed items.
Write down the numeric answer in µM and omit the unit.

CC[C@H]1OC(=O)[C@H](C)C(=O)[C@H](C)[C@@H](O[C@@H]2O[C@H](C)C[C@H](N(C)C)[C@H]2O)[C@@H](C)C[C@@H](C)C(=O)/C=C/[C@H]1C [Compound 4, narbomycin, reference compound] = 6.2

Please find the next molecule below.
In: Fill in reported Minimal inhibitory concentration for this entry: CC[C@H]1OC(=O)[C@H](C)C(=O)[C@H](C)[C@@H](O[C@@H]2O[C@H](C)C[C@H](N(C)C)[C@H]2O)[C@@H](C)C[C@@H](C)C(=O)/C=C/[C@]1(C)O [Compound 5, pikromycin, reference compound]
Out: 25

====

- measurement target: PikCD50N-RhFRED (Streptomyces venezuelae, UniProt O87605, D50N)
- Type: biochemical
- stated conditions: PikCD50N-RhFRED; Table 1
# key: entry, value: Number of products
Hey, just send me the number, nothing else.

Guide cases for Number of products, answers given:
CC[C@H]1OC(=O)[C@H](C)[C@@H](O[C@@H]2OC(C)CC(C)C2C)[C@@H](C)C[C@@H](C)C(=O)/C=C/[C@H]1C (stereo partly shown) [Compound 1, YC-17, reference compound] = 2
CC1CC(N(C)C)C(O)C(OC2CCCCCCCCCCCC2)O1 (stereo not shown) [Compound 8] = 6
CCCCC#CCOC1OC(C)CC(N(C)C)C1O (stereo not shown) [Compound 16] = 0

In: Look up Number of products of CC1CC(N(C)C)C(O)C(OC2CCCC3CCCCC32)O1 (stereo not shown) [Compound 14] and report it.
Out: 0

====

- Test system: Deinococcus radiodurans
- experiment notes: antibacterial MIC, microtiter dilution
- stated conditions: 60 h, read-out: Minimal inhibitory concentration, Deinococcus radiodurans, Special media, 30° C.
Reported values of log10(MIC) for individual entries
Log scale reminder: MIC in µM, then log10 taken.

CC[C@H]1OC(=O)[C@H](C)[C@@H](O[C@@H]2OC(C)CC(C)C2C)[C@@H](C)C[C@@H](C)C(=O)/C=C/[C@H]1C (some centres unmarked) [Compound 1, YC-17, reference compound] = 2.60

In: Identify measured log10(MIC) corresponding to CC[C@H]1OC(=O)[C@H](C)[C@@H](O[C@@H]2O[C@H](C)C[C@H](N(C)C)[C@H]2O)[C@@H](C)C[C@@H](C)C(=O)/C=C/[C@]1(C)O [Compound 2, methymycin, reference compound]
Out: 2.30

In: Answer with reported log10(MIC) of CC1CC(N(C)C)C(O)C(OC2CCCCCCCCCCCC2)O1 (centres unmarked) [Compound 8]
Out: 2.00

In: // Input: CC1CC(N(C)C)C(O)C(OC2CCCCCCCCCCCCCC2)O1 (centres unmarked) [Compound 12] . Output its log10(MIC) only.
Out: 1.70

In: Check the records and state log10(MIC) for CC[C@H]1OC(=O)[C@H](C)[C@@H](O[C@H]2C[C@@](C)(OC)[C@@H](O)[C@H](C)O2)[C@H](C)[C@@H](O[C@@H]2O[C@H](C)C[C@H](N(C)C)[C@H]2O)[C@](C)(O)C[C@@H](C)C(=O)[C@H](C)[C@@H](O)[C@]1(C)O [Erythromycin, reference compound]
Out: 0.79

In: Give log10(MIC) for CC1CC(N(C)C)C(O)C(OC2CCCCCCCCCCCCC2)O1 (centres unmarked) [Compound 10]
Out: 1.70
